# Tested on: UISO
# assay-procedure: qHTS assay to identify novel small-molecules to repurpose for Merkel cell carcinoma treatment (AID 1296009); note: nearly all actives have a fitted effect of over 60% in size
# details: MCC and control cell lines, CellTiter-Glo viability, 72 h; series mostly up to 46 µM
# From the text: MCC is a rare and aggressive neuroendocrine skin cancer with limited treatment options. Approximately 80% of MCCs have the Merkel cell polyomavirus (MCPyV) DNA integrated into the host genome (virus-positive: VP-MCC) and viral oncogenes drive oncogenesis. The remaining MCCs are virus-negative (VN-MCC) and are caused by UV mutagenesis. […] Using cell viability as a readout (CellTiter-Glo assay) we found both overlapping and distinct drugs that can be repurposed for the treatment of VP-MCC and VN-MCC. […]
Inconclusive results are not listed. Activity calls are given as the source filed them. Calls come from the whole dose curve; as a rule, active = well fitted inhibition curve with a large enough effect; inconclusive = small, poorly fitted or top-dose-only effect; inactive = flat fitted curve, though single readings scatter. Positions of bridges follow the written chain, without caps; N, C: chain ends. Non-standard residues stand in square brackets, D forms with d. Residues, ends and D or L forms follow the SMILES beside them. ξ: configuration not given here. *: point of attachment. Octanoyl(6-Me) = CCC(C)CCCCC(=O)*; ξThr(3R) = C[C@@H](O)C(N)C(=O)O; dDab = NCC[C@@H](N)C(=O)O; Dab = NCC[C@H](N)C(=O)O
Result category, one only: 1 = active, 0 = inactive

These recorded examples may help you get a feel for the data.
{"columns": ["molecule", "qualitative-label"],
 "data": [
  ["Cn1cnc2c(F)c(Nc3ccc(Br)cc3F)c(C(=O)NOCCO)cc21", 0],
  ["COc1ccc(C=Cc2cc(OC)c(OC)c(OC)c2)cc1NC(=O)[C@H](N)CO", 1],
  ["O=C(O)C[C@H](O)C[C@H](O)C=Cc1c(C2CC2)nc2ccccc2c1-c1ccc(F)cc1", 1],
  ["OC[C@@H](O)[C@@H](O)[C@H](O)[C@@H](O)CO", 0],
  ["Cn1cc(C=CC(=O)c2cccc(F)c2)cc1C=CC(=O)NO", 0]
]}

// query Which outcome was assigned to `CN[C@H](CC(C)C)C(=O)N[C@H]1C(=O)N[C@@H](CC(N)=O)C(=O)N[C@@H]2C(=O)N[C@H]3C(=O)N[C@H](C(=O)N[C@H](C(=O)O)c4cc(O)cc(O)c4-c4cc3ccc4O)[C@H](O)c3ccc(c(Cl)c3)Oc3cc2cc(c3O[C@@H]2O[C@H](CO)[C@@H](O)[C@H](O)[C@@H]2O[C@H]2C[C@](C)(N)[C@H](O)[C@H](C)O2)Oc2ccc(cc2Cl)[C@H]1O` in this test?
// result 0

// query # iterate: `Cc1onc(-c2ccccc2)c1C(=O)N[C@@H]1C(=O)N2[C@@H](C(=O)O)C(C)(C)S[C@@H]12`
// result 0

// query # iterate: `C=CCNc1c(O)cc2c(O)c1C[C@@H](C)C[C@H](OC)[C@@H](O)[C@@H](C)C=C(C)[C@H](OC(N)=O)[C@@H](OC)C=CC=C(C)C(=O)N2`
// result 1

// query # iterate: `CON=C(C(=O)N[C@@H]1C(=O)N2C(C(=O)O)=C(Cn3ccc(=N)n3CCO)CS[C@H]12)c1csc(N)n1`
// result 0

// query # iterate: `C[C@H]1COc2c(N3CCN(C)CC3)c(F)cc3c(=O)c(C(=O)O)cn1c23`
// result 0

// query # iterate: CC(=O)O[C@@]12CO[C@H]1C[C@H](O)[C@@]1(C)C(=O)[C@H](O)C3=C(C)[C@@H](OC(=O)C(O)[C@@H](NC(=O)OC(C)(C)C)c4ccccc4)C[C@@](O)([C@@H](OC(=O)c4ccccc4)[C@@H]21)C3(C)C (some centres undefined)
// result 0

// query # iterate: `C[C@H]1[C@@H](OC(=O)CCC(=O)O)O[C@@H]2O[C@@]3(C)CC[C@@H]4[C@H](C)CC[C@@H]1[C@@]24OO3`
// result 1

// query # iterate: `COc1ccc(S(=O)(=O)Nc2cc(-c3c(O)ccc4ccccc34)c(O)c3ccccc23)cc1`
// result 1

// query # iterate: `C[C@@H]1[C@H](C)CC[C@]2(C(=O)O)CC[C@]3(C)C(=CC[C@@H]4[C@@]5(C)C[C@@H](O)[C@H](O)[C@@](C)(CO)[C@H]5CC[C@]43C)[C@@H]12`
// result 0

// query # iterate: CCCNC(=O)[C@H]1O[C@H]1C(=O)N[C@H](C(=O)N1CCC[C@@H]1C(=O)OC)C(C)CC (some centres undefined)
// result 1

// query # iterate: CCC(C)CCCCC(=O)N[C@@H](CCN)C(=O)NC(C(=O)N[C@H](CCN)C(=O)N[C@@H]1CCNC(=O)C([C@@H](C)O)NC(=O)[C@@H](CCN)NC(=O)[C@@H](CCN)NC(=O)[C@@H](CC(C)C)NC(=O)[C@H](Cc2ccccc2)NC(=O)[C@H](CCN)NC1=O)[C@@H](C)O (stereo partly drawn) ({Octanoyl(6-Me)}-[Dab][ξThr(3R)][dDab][dDab][Dab]F[dL][dDab][dDab][ξThr(3R)]; lactam 4-C)
// result 0

// query # iterate: `CCN(CC)Cc1ccc2cc(COC(=O)Nc3ccc(C(=O)NO)cc3)ccc2c1`
// result 1

// query # iterate: `C[C@@H](Cc1cc2c(c(C(N)=O)c1)N(CCCO)CC2)NCCOc1ccccc1OCC(F)(F)F`
// result 0

// query # iterate: `CO[C@@H]1[C@@H](O)[C@H](O)[C@@H](n2c3c(Cl)cccc3c3c4c(c5c6cccc(Cl)c6[nH]c5c32)C(=O)NC4=O)O[C@@H]1CO`
// result 1

// query # iterate: `CC(C)N1[N]C(=C2C=c3cc(O)ccc3=N2)c2c(N)ncnc21`
// result 1

// query # iterate: `C[C@H]1C[C@H]2[C@@H]3CCC4=CC(=O)C=C[C@]4(C)[C@@H]3C(=O)C[C@]2(C)[C@@]1(O)C(=O)CO`
// result 0

// query # iterate: `C[C@H](O)[C@@H]1C(=O)N2C(C(=O)O)=C(S[C@@H]3CN[C@H](CNS(N)(=O)=O)C3)[C@@H](C)[C@@H]12`
// result 0

// query # iterate: `N#CC(=C(O)c1ccc(Cl)cc1Cl)c1nc2cc(Cl)ccc2c(=O)[nH]1`
// result 0

// query # iterate: `O=C(Nc1cccc(Nc2ncc(Br)c(NCCc3cnc[nH]3)n2)c1)N1CCCC1`
// result 1

// query # iterate: `C=C1C(=O)O[C@H]2[C@@H]1CCC(C)=CCC[C@@]1(C)O[C@@H]21`
// result 1

// query # iterate: `Nc1ccc(C(=O)Nc2cccc(-c3nc(N4CCOCC4)c4oc5ncccc5c4n3)c2)cn1`
// result 0

// query # iterate: `COc1cc(C(C)C)c(Oc2cnc(NC(CO)CO)nc2N)cc1I`
// result 0

// query # iterate: `CN(CC(=O)N(Cc1ccc(C2CCCCC2)cc1)c1ccc(C(=O)O)c(O)c1)S(=O)(=O)c1c(F)c(F)c(F)c(F)c1F`
// result 0

// query # iterate: `O=C1NC(=O)C(=Cc2ccc3nccc(-c4ccncc4)c3c2)S1`
// result 1

###

# assay-procedure: Quantitative High-Throughput drug screen in 47 multiple myeloma cell lines against the NCATS MIPE library collection: OCIMY5_PLB cell viability assay (AID 1918988); note: potency is the fitted concentration of half-maximal effect; nearly all actives have a fitted effect of over 65% in size
# details: OCI-MY5 myeloma viability, ATP luminescence, 48 h; series mostly up to 45.8 µM
Inconclusive results are not listed. The source made the active and inactive calls. Calls follow the shape of the dose curve; as a rule, active = well fitted cell-killing curve with a large enough effect; inconclusive = small, poorly fitted or top-dose-only effect, or effect the other way; inactive = no such curve, though single readings can be large or run the other way.
Potency by entry:

Recorded Potency, per entry:
{"columns": ["item-smiles", "Potency"],
 "data": [
  ["O=c1[nH]c(=O)n([C@H]2C[C@@H](O)[C@@H](CO)O2)cc1F", "26.4 µM (active)"],
  ["C=CC(=O)N1CCc2ccc(-n3c(=O)ccc4cnc5ccc(-c6cnn(C)c6)cc5c43)cc21", "3.32 µM (active)"]
]}

// query Data request, read-out Potency, for `Cn1cc(C=CC(=O)c2cccc(F)c2)cc1C=CC(=O)NO`
// result 14.8 µM (active)

// query # iterate: `CCN(CC)CCNC(=O)c1c(C)[nH]c(C=C2C(=O)Nc3ccc(F)cc32)c1C`
// result 8.55 µM (active)

// query # iterate: `NC(=O)Nc1sc(-c2ccc(F)cc2)cc1C(N)=O`
// result 2.09 µM (active)

// query # iterate: `CCc1nc(-c2cccc(C)c2)c(-c2ccnc(NC(=O)c3ccccc3)c2)s1`
// result 16.6 µM (active)

// query # iterate: `CNC(=O)c1ccc(Nc2cc(Nc3ccccc3S(=O)(=O)C(C)C)c3cc[nH]c3n2)nc1`
// result 4.69 µM (active)

// query # iterate: `COc1ccc(S(=O)(=O)Nc2cc(-c3c(O)ccc4ccccc34)c(O)c3ccccc23)cc1`
// result 20.9 µM (active)

// query # iterate: `CN(CC(=O)N(Cc1ccc(C2CCCCC2)cc1)c1ccc(C(=O)O)c(O)c1)S(=O)(=O)c1c(F)c(F)c(F)c(F)c1F`
// result 18.7 µM (active)
